System: Breast cancer subpanel
Experiment: NCI-60 screen, subpanel Breast cancer
Task for the reader: assign each of the following molecules its reported Selectivity, ratio MID a: MID b.

Record Selectivity, ratio MID a: MID b per entry; entries follow.
1. C=C(C)[C@@H]1CC[C@]2(C(=O)OC)CC[C@]3(C)[C@H](CC[C@@H]4[C@@]5(C)CCC(=NOCCC(=NOCCC#N)NCCC#N)C(C)(C)[C@@H]5CC[C@]43C)[C@@H]12 [Compound 21]
2. C=C(C)[C@@H]1CC[C@]2(C(=O)NCCCN)CC[C@]3(C)[C@H](CC[C@@H]4[C@@]5(C)CCC(=O)C(C)(C)[C@@H]5CC[C@]43C)[C@@H]12 [Compound 10]
3. C=C(C)[C@@H]1CC[C@]2(C(N)=O)CC[C@]3(C)[C@H](CC[C@@H]4[C@@]5(C)CC[C@H](O)C(C)(C)[C@@H]5CC[C@]43C)[C@@H]12 [Compound 5]

Reply:
1. 1.00
2. 1.01
3. 0.98
